# study system: UniProt P29274
# Sequence (P29274 whole entry): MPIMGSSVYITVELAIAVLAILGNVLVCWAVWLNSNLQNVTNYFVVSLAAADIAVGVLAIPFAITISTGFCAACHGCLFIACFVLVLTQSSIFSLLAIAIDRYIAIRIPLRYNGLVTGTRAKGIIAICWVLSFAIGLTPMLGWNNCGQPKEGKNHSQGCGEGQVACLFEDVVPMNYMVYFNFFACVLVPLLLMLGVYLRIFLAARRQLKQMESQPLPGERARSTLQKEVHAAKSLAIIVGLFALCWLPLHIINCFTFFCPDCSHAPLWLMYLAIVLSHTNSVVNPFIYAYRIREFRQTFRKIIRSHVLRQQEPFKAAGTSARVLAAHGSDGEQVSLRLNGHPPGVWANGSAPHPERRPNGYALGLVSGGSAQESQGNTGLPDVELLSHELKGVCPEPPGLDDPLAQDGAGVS
# assay overview: A2A antagonism in cAMP cell-based assay (LANCE cAMP, HEK293)
# assay context: HEK293 cells expressing human A2A receptor
pIC50: −log10 of the molar value.
Outcome: y for pIC50 of at least 8; n for anything lower.

Some solved entries appear below for comparison.
1. COc1cc2nc(N)n3nc([C@@H]4CC[C@H](C)N(c5cnn([C@H](C)[C@@H](C)O)c5)C4)nc3c2cc1F (single isomer, unassigned) [Example 231]
n
2. COc1cc2nc(N)n3nc(C4CCC(C)N(c5cnn(C(C)C(C)O)c5)C4)nc3c2cc1F (single isomer, unassigned) [Example 239]
n

Query: Could you tell me if the measured pIC50 of COc1cc(F)cc2c1nc(N)n1nc(C3CC(C)CN(c4cn(C(C)C(C)O)nc4C)C3)nc21 (single isomer, unassigned) [Example 224] reaches 8 or more?
Response: y

Query: Is reported pIC50 greater than or equal to 8 here: CC(O)C(C)n1cc(N2CC(c3nc4c5cc(F)cc(F)c5nc(N)n4n3)CCC2C)cn1 (single isomer, unassigned) [Example 234]
Response: n

Query: Please indicate if the recorded pIC50 for COc1cc(F)cc2c1nc(N)n1nc(C3CC(C)CN(c4cn(C(C)(C)CO)nc4C)C3)nc21 (single isomer, unassigned) [Example 176] meets or exceeds 8.
Response: y

Query: Is pIC50 at least 8? Consider COc1cc2nc(N)n3nc(C4CC(C)CN(c5cnn(CC(C)(C)O)c5C)C4)nc3c2cc1F (single isomer, unassigned) [Example 274]
Response: y

Query: Evaluate COc1cc2nc(N)n3nc(C4CCC(C)N(c5cnn(CC(C)(O)CO)c5)C4)nc3c2cc1F (single isomer, unassigned) [Example 252] : pIC50 at minimum 8?
Response: n

Query: Item COc1cc2nc(N)n3nc([C@H]4C[C@@H](C)CN(c5cn([C@@H](C)[C@H](C)O)nc5C)C4)nc3c2cc1F (single isomer, unassigned) [Example 211] with pIC50 of 8 or above?
Response: n

Query: Does pIC50 meet or surpass 8 for COc1cc2nc(N)n3nc([C@@H]4CCCN(c5cnn(C(C)C(C)O)c5)C4)nc3c2cc1F (single isomer, unassigned) [Example 187] ?
Response: y
